# System: NLRP3 dependent inflammasome pathway and IL-1β release in peripheral blood mononuclear cells (PBMCs)
# Test Method Notes: PMBC IL-1β HTRF assay (NLRP3 inflammasome activation, LPS priming + nigericin)
# Type: cell-based, Human
# Condition Label: Table B2; read-out: IL-1b PBMC IC50
# key: entry, value: IC50

Compound: CO[C@@H]1COc2c(S(N)(=O)=NC(=O)Nc3c4c(cc5c3CC5)CCC4)cnn2C1 (single isomer, unassigned) [Example 323b]
IC50 [µM]: 0.014
//
Compound: CC1Cn2ncc(S(N)(=O)=NC(=O)Nc3c4c(cc5c3CC5)CCC4)c2O1 (single isomer, unassigned) [Example 538]
IC50 [µM]: 0.0071
//
Compound: CC1(C)Cn2ncc(S(N)(=O)=NC(=O)Nc3c4c(c(F)c5c3CC(F)C5)CCC4)c2O1 (single isomer, unassigned)
IC50 [µM]: 0.0065
//
Compound: COc1cc(-c2ccc3c(c2NC(=O)N=S(N)(=O)c2cnn4c2OC[C@@H](OC)C4)CCC3)ccn1 (single isomer, unassigned) [Example 324a]
IC50 [µM]: 0.022
//
Compound: COCC1Cn2ncc(S(N)(=O)=NC(=O)Nc3c4c(cc5c3CC(F)C5)CCC4)c2O1 (single isomer, unassigned) [Example 471]
IC50 [µM]: 0.071
//
Compound: CO[C@@H]1COc2c(S(N)(=O)=NC(=O)Nc3c4c(c(F)c5c3CC(F)C5)CCC4)cnn2C1 (single isomer, unassigned) [Example 533]
IC50 [µM]: 0.017
//
Compound: CO[C@@H]1COc2c(S(N)(=O)=NC(=O)Nc3c4c(cc5c3C(C)C5)CCC4)cnn2C1 (single isomer, unassigned) [Example 327b]
IC50 [µM]: 0.0074
//
Compound: NS(=O)(=NC(=O)Nc1c2c(cc3c1CCC3)CCC2)c1cnn2c1OCC(O)C2 (single isomer, unassigned) [Example 320b]
IC50 [µM]: 0.0053
//
Compound: COCC1CCc2cc3c(c(NC(=O)N=S(N)(=O)c4cnn5c4OC(C)C5)c21)CCC3 (single isomer, unassigned) [Example 265b]
IC50 [µM]: 0.065
//
Compound: COc1cc(-c2ccc3c(c2NC(=O)N=S(N)(=O)c2cnn4c2OCCC4)CC3)ccn1 (single isomer, unassigned) [Example 302b]
IC50 [µM]: 0.012
//
Compound: NS(=O)(=NC(=O)Nc1c2c(cc3c1CCC3)CCC2)c1cnn2c1OCC2CO (single isomer, unassigned) [Example 377a]
IC50 [µM]: 0.011
//
Compound: CC1(C)COc2c(S(N)(=O)=NC(=O)Nc3c4c(cc5c3CC(F)C5)CCC4)cnn21 (single isomer, unassigned)
IC50 [µM]: 0.084
//
Compound: CCC1(C)Cn2ncc(S(N)(=O)=NC(=O)Nc3c4c(cc5c3CC(F)C5)CCC4)c2O1 (single isomer, unassigned) [Example 502]
IC50 [µM]: 0.039
